B1: LINE1-mini (parent)
chain: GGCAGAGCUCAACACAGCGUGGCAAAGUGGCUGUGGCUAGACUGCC

variants of: B1; experiment: self-cleavage, relative activity (ratio to wild type); higher = more cleavage; in vitro, sequencing; the parent is a self-cleaving ribozyme
I would appreciate it if you labelled entries 1 (yes) when self-cleavage is 0.07 or higher, otherwise 0 (no).

Monomer sequence | Category label
GGCAGAGCUCAACAUAGCGUGGCAAAGUGGCUGAGGCUAGACUGCC [C15U U34A] | 1 (yes)
AGCAGAGCUCAACACAGCGUGGCAAAGUGGCAGUGGCUAGACUGCC [G1A U32A] | 1 (yes)
GGCAGAGGUCAAUACAGCGUGGCAAAGUGGCUGUGGCUAGACUGCC [C8G C13U] | 1 (yes)
GGCAGAGCUCAACACAGCGUGGCAAAGUGGCUGUGGCUUGACUGGC [A39U C45G] | 1 (yes)
GGCAGAGCUCAACACAGCGUGGUAAAGUGGCUGUGGCUAGACUGCG [C23U C46G] | 1 (yes)
GGCAGAGCUCAACACAGCGUGGCAAAGUGGCUGUGGCUAGACUGGC [C45G] | 1 (yes)
GGCCGAGCUCAACACAGCGUGGCAAAGUGGCUGUGGCCAGACUGCC [A4C U38C] | 1 (yes)
GGCAGAGCUCAACACAGCGUGGCGAAGUGGCUGUGGAUAGACUGCC [A24G C37A] | 1 (yes)
GGCAGAGCUCAACACAGCGUGUCAAAGUGGCUGAGGCUAGACUGCC [G22U U34A] | 1 (yes)
GGCAGAGCUUAACGCAGCGUGGCAAAGUGGCUGUGGCUAGACUGCC [C10U A14G] | 1 (yes)
GGCACAGCUGAACACAGCGUGGCAAAGUGGCUGUGGCUAGACUGCC [G5C C10G] | 0 (no)
GGCAGAGCUCAACACAGCGUGGCAAAGUGGCUGUGGCUAGCCUGCC [A41C] | 0 (no)
GGCAGAGCUCAACACAGCGUUGCAAAGUGGUUGUGGCUAGACUGCC [G21U C31U] | 1 (yes)
GGCAGAGCUCAACACACCGUGGCAAAGUGUCUGUGGCUAGACUGCC [G17C G30U] | 0 (no)
GGAAGAGCUCAUCACAGCGUGGCAAAGUGGCUGUGGCUAGACUGCC [C3A A12U] | 1 (yes)
GGCAGAGCACAACACCGCGUGGCAAAGUGGCUGUGGCUAGACUGCC [U9A A16C] | 1 (yes)
GGCCGAGCUCAACACAGCGUGGCACAGUGGCUGUGGCUAGACUGCC [A4C A25C] | 0 (no)
GGCAGCGCUCAACACAGCGUGGCAAAGUGGCCGUGGCUAGACUGCC [A6C U32C] | 0 (no)
GGCAGAGCUCAACACAGCGUGGCAAAGUGGCUGUGGCUCGACAGCC [A39C U43A] | 0 (no)
GGCAGAGCUCAAAACAGCGUGGCAAAGUGGCUGGGGCUAGACUGCC [C13A U34G] | 0 (no)
GGCAGAGCUCAACACAGGGUGGCAAAGAGGCUGUGGCUAGACUGCC [C18G U28A] | 1 (yes)
GCCAGAGCUCAACACAGCGUGGCAAAGUAGCUGUGGCUAGACUGCC [G2C G29A] | 1 (yes)
GGCAGAGCUCAACACAGCGUGGCACAGUGGCUGUGGCUAGAAUGCC [A25C C42A] | 1 (yes)
GGCAGAGCUCAACACAGCUUAGCAAAGUGGCUGUGGCUAGACUGCC [G19U G21A] | 1 (yes)
GGAAGACCUCAACACAGCGUGGCAAAGUGGCUGUGGCUAGACUGCC [C3A G7C] | 1 (yes)
GGCAGAGCUCCACACAGCGUGGCAAAGUGGCUGUCGCUAGACUGCC [A11C G35C] | 0 (no)
GGCAGAGCUCAACACAGCGUGGCAAAGUGGCUGUGGGUAGACUGAC [C37G C45A] | 0 (no)
GGCAGAGCUCAACAUAGCGUGGCAAAGUGGCUGUGGCUAGGCUGCC [C15U A41G] | 1 (yes)
GGCAGAGCUGAACUCAGCGUGGCAAAGUGGCUGUGGCUAGACUGCC [C10G A14U] | 0 (no)
GGCAGAGCUCAACACUGCGUGGCAAGGUGGCUGUGGCUAGACUGCC [A16U A26G] | 0 (no)
GGCAGAGCUCAACACAGCGUGGCAAAGUGGGUGUGGCUAGACUGCG [C31G C46G] | 0 (no)
UGCAGAGCUCAACACAGCGUGGCAAAGUGGCUGUAGCUAGACUGCC [G1U G35A] | 1 (yes)
GGCAGUGCUCAACACAGCGUGGCAAAGUGGCUGUGGCUAUACUGCC [A6U G40U] | 1 (yes)
GGCAGAGCUCAACACAGCGCGGCAAAGUGGCUGGGGCUAGACUGCC [U20C U34G] | 1 (yes)
GGCAGAGAUCAACACAGCGUGGCAAAGGGGCUGUGGCUAGACUGCC [C8A U28G] | 1 (yes)
GGCAGAGCUAAACACAGCGUGGCAUAGUGGCUGUGGCUAGACUGCC [C10A A25U] | 1 (yes)
GGCAGAGCUCAACACAGCCUGGCAAAGUGGGUGUGGCUAGACUGCC [G19C C31G] | 1 (yes)
AGCAGAGCUCAACACAGUGUGGCAAAGUGGCUGUGGCUAGACUGCC [G1A C18U] | 1 (yes)
GGCAGAGCUCAACACAGCGUGGCUAAGUGGCUAUGGCUAGACUGCC [A24U G33A] | 0 (no)
GGGAGAGCUCAACACAGCAUGGCAAAGUGGCUGUGGCUAGACUGCC [C3G G19A] | 1 (yes)
GGCAGAGCUCAACACAGCGGGGCAAAGUGGCUGUGGCUAGAGUGCC [U20G C42G] | 1 (yes)
GGCAGAGAUCAACACAGCGUGGCAAAGUGGCUGUGGCUAGACUCCC [C8A G44C] | 1 (yes)
GGCAGAGCUCAACACAGCGUGGCAAAGUGGCUGUGUCUAGAGUGCC [G36U C42G] | 0 (no)

// data source = the RNAGym collection of RNA variant scans (doi:10.7554/elife.90254)
